// SARS-CoV-2 infection rate lookup, one value per entry
Tested on: Vero E6 infected with SARS-CoV-2
Assay overview: SARS-CoV-2 infection rate relative to infected DMSO; higher = more infection, active = 60 or less
Measurement context: 24 h
Write the number in % without appending the unit.

// worked examples, SARS-CoV-2 infection rate included
C=C1C(=O)O[C@@H]2[C@H]3O[C@]3(C)CC/C=C(\C)CC[C@@H]12 [parthenolide-(alternate-stereo)] (0.833333 µM) | 106
S=C=Nc1ccc(N=C=S)cc1 [bitoscanate] (10 µM) | 106
CNC(=O)c1cc(Oc2ccc(NC(=O)Nc3ccc(Cl)c(C(F)(F)F)c3)c(F)c2)ccn1 [regorafenib] (0.833333 µM) | 110
CC(=O)N(c1onc(C)c1C)S(=O)(=O)c1ccc(N)cc1 [sulfisoxazole-acetyl] (10 µM) | 91
C#C[C@]1(O)CC[C@H]2[C@@H]3CCC4=CC(=O)CC[C@@H]4[C@H]3C(=C)C[C@@]21CC [etonogestrel] (10 µM) | 90.5

The reported value for CCCCCCCCCCC(C)(C)C(=O)Nc1c(OC)cc(OC)cc1OC (10 µM) in terms of SARS-CoV-2 infection rate is 111

The reported value for COC(=O)[C@H](CC(C)C)NC(=O)[C@@H](N)CC(C)C [leucylleucine-methyl-ester] (10 µM) in terms of SARS-CoV-2 infection rate is 99.5

The reported value for Cn1cnc([N+](=O)[O-])c1Sc1ncnc2[nH]cnc12 [azathioprine] (10 µM) in terms of SARS-CoV-2 infection rate is 95.5

These measurements were taken from the supplement of paper PMC13380429.
